Kindly state IC50 for each of the entries shown.
Molecular target: EGFR (tyrosine 1173 phosphorylation) in A431 cells (Homo sapiens)
Construct: endogenous in cells
Sequence (P00533 25-1210): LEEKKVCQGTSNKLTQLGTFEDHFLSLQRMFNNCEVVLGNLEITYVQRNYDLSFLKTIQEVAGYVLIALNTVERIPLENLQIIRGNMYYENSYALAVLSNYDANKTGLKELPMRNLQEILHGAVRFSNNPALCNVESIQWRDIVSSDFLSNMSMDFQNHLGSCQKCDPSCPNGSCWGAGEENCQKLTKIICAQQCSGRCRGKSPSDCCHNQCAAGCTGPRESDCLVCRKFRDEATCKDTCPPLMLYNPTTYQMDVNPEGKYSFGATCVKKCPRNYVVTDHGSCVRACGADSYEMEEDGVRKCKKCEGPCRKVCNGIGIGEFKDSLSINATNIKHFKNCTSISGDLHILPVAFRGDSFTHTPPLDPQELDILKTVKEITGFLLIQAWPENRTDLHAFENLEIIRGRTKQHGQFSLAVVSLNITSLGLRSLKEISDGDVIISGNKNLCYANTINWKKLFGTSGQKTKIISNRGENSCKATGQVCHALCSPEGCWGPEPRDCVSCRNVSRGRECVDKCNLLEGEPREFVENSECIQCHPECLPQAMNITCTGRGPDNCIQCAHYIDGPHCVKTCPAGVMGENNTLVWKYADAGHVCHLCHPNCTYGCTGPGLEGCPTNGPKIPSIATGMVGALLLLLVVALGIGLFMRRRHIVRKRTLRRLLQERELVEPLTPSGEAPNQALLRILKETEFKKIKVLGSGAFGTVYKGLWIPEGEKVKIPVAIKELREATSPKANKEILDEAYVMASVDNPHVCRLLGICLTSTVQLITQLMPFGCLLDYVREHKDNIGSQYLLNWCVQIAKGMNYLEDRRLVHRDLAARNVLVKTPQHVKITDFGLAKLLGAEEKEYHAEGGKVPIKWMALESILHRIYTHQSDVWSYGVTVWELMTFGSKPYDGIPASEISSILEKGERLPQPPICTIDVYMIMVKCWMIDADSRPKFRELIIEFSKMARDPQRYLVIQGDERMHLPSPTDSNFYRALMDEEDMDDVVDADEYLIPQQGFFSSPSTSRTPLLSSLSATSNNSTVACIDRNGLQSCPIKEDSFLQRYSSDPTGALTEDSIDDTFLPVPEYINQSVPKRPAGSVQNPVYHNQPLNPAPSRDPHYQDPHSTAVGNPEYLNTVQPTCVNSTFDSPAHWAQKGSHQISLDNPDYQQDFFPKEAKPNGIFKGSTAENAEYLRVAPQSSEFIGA
Test: EGFR Autophosphorylation Inhibition Assay in Epidermoid Carcinoma Cell Line A431
Details: EGF-induced phosphorylation of tyrosine 1173

Which IC50 reading was recorded for the compound Oc1ccc(-c2cc3c(Sc4ccc(Cl)cc4)ncnc3[nH]2)cc1 [Compound L7] ? 100 to 1000 nM

What IC50 value was documented for this compound, CCc1ccccc1Sc1ncnc2[nH]c(-c3cccc(OC)c3)cc12 [Compound J20] ? 1000 to 10000 nM

Any idea what its IC50 is? The compound is Oc1ccc(-c2cc3c(Oc4cccc(Br)c4)ncnc3[nH]2)cc1 [Compound E3] < 100 nM

Fill in the blank: the reported IC50 of COc1cccc(-c2cc3c(Sc4ccccc4Cl)ncnc3[nH]2)c1 [Compound J19] is ____. 1000 to 10000 nM

Returns the measured IC50 for the input compound. Input: Oc1ccc(-c2cc3c(Sc4ccccc4)ncnc3[nH]2)cc1 [Compound L2] < 100 nM

Requested read-out: IC50. Entry: Oc1ccc(-c2cc3c(Sc4cccc(F)c4)ncnc3[nH]2)cc1 [Compound L3] < 100 nM

Entry Cc1cccc(Sc2ncnc3[nH]c(-c4ccc(O)cc4)cc23)c1 [Compound L5] has what IC50? < 100 nM

What IC50 value was documented for this compound, COc1cccc(-c2cc3c(Sc4ccccc4)ncnc3[nH]2)c1 [Compound J33] ? 100 to 1000 nM

Name the reported IC50 value associated with the compound COc1cccc(-c2cc3c(Sc4cccc(F)c4)ncnc3[nH]2)c1 [Compound J25] 100 to 1000 nM
